assay: Selectivity index, ratio of CC50 for human AC10 cells to IC50 for human HEL 92.1.7 cells; type: toxicity; settings: AC10 cells (CC50) and HEL 92.1.7 cells (IC50)

{"chemical.string": "CC(=O)Nc1ccc(-c2ccnc(Nc3cccc(OCCCCCCC(=O)NO)c3)n2)cc1", "relation.symbol": "=", "selectivity ratio": 3.08}
{"chemical.string": "CC(=O)Nc1ccc(-c2nc(Nc3cccc(OCCCCCCCC(=O)NO)c3)ncc2C)cc1", "relation.symbol": "=", "selectivity ratio": 2.31}
{"chemical.string": "CC(=O)Nc1ccc(-c2ccnc(Nc3cccc(OCCCCCCCC(=O)NO)c3)n2)cc1", "relation.symbol": ">", "selectivity ratio": 30}
{"chemical.string": "CC(=O)Nc1ccc(-c2ccnc(Nc3cccc(OCCCCCC(=O)NO)c3)n2)cc1", "relation.symbol": "=", "selectivity ratio": 1.61}
{"chemical.string": "CC(=O)Nc1ccc(-c2ccnc(Nc3ccc(OCCCCCCC(=O)NO)cc3)n2)cc1", "relation.symbol": "=", "selectivity ratio": 1.58}

* * *

Consider compounds characterized by their pIC50 with Histone deacetylase 1 (Homo sapiens, UniProt Q13547).
Sequence (Q13547 whole entry): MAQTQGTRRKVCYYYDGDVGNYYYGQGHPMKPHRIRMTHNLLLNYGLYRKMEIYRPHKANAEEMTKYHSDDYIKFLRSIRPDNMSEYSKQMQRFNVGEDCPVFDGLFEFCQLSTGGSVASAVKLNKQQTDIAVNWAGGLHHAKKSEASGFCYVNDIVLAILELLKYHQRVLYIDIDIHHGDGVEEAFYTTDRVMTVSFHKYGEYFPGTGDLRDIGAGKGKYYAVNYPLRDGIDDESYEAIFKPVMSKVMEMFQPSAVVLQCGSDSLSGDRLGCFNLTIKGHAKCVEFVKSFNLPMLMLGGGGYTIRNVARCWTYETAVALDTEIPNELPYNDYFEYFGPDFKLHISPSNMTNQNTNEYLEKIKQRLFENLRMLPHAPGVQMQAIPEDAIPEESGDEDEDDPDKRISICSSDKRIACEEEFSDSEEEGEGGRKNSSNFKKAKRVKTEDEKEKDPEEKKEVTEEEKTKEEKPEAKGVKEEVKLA
pIC50: −log10 of the molar value.
reported.property: pIC50

{"chemical.string": "O=C(CCCCCCC(=O)Nc1ccc(-c2ccnc(Nc3ccc(N4CCCCC4)cc3)n2)cc1)NO", "reported.property": "pIC50", "reported.value": 6.03}
{"chemical.string": "CC(=O)Nc1ccc(-c2nc(Nc3cccc(OCCCCCCC(=O)NO)c3)ncc2C)cc1", "reported.property": "pIC50", "reported.value": 6.81}
{"chemical.string": "O=C(CCCCCCC(=O)Nc1ccc(-c2ccnc(Nc3ccccc3)n2)cc1)NO", "reported.property": "pIC50", "reported.value": 8.42}

* * *

assay: Selectivity index, ratio of CC50 for human AC10 cells to IC50 for human MCF7 cells; format: toxicity; conditions: AC10 cells (CC50) and MCF7 cells (IC50)
// reported selectivity ratio per item
reported.property: selectivity ratio

{"chemical.string": "Cc1cnc(Nc2ccc(N3CCN(C)CC3)cc2)nc1-c1ccc(NC(=O)CCCCCCC(=O)NO)cc1", "reported.value": 2.86}
{"chemical.string": "CC(=O)Nc1ccc(-c2ccnc(Nc3cccc(OCCCCCC(=O)NO)c3)n2)cc1", "reported.value": 1.15}
{"chemical.string": "CC(=O)Nc1ccc(-c2ccnc(Nc3cccc(OCCCCCCC(=O)NO)c3)n2)cc1", "reported.value": 1.24}
{"chemical.string": "CC(=O)Nc1ccc(-c2ccnc(Nc3cccc(OCCCCCCCC(=O)NO)c3)n2)cc1", "reported.value": "> 82"}
{"chemical.string": "CN1CCN(CC(=O)Nc2ccc(-c3ccnc(Nc4cccc(OCCCCCCC(=O)NO)c4)n3)cc2)CC1", "reported.value": 4.75}
{"chemical.string": "CC(=O)Nc1ccc(-c2nc(Nc3cccc(OCCCCCCC(=O)NO)c3)ncc2C)cc1", "reported.value": 2.83}
{"chemical.string": "CC(=O)Nc1ccc(-c2nc(Nc3ccc(OCCCCCC(=O)NO)cc3)ncc2C)cc1", "reported.value": 7.14}
{"chemical.string": "O=C(CCCCCCC(=O)Nc1ccc(-c2ccnc(Nc3ccc(N4CCOCC4)cc3)n2)cc1)NO", "reported.value": 5.69}
{"chemical.string": "O=C(CCCCCCC(=O)Nc1ccc(-c2ccnc(Nc3cccc(N4CCCCC4)c3)n2)cc1)NO", "reported.value": 5.04}
{"chemical.string": "O=C(CCCCCCC(=O)Nc1ccc(-c2ccnc(Nc3ccccc3)n2)cc1)NO", "reported.value": 9.12}
{"chemical.string": "CN1CCN(CC(=O)Nc2ccc(-c3ccnc(Nc4ccc(OCCCCCCC(=O)NO)cc4)n3)cc2)CC1", "reported.value": 0.85}
{"chemical.string": "CC(=O)Nc1ccc(-c2nc(Nc3cccc(OCCCCCCCC(=O)NO)c3)ncc2C)cc1", "reported.value": 0.67}
{"chemical.string": "CN1CCN(c2ccc(Nc3nccc(-c4ccc(NC(=O)CCCCCCC(=O)NO)cc4)n3)cc2)CC1", "reported.value": 2.06}
{"chemical.string": "CC(=O)Nc1ccc(-c2ccnc(Nc3ccc(OCCCCCCC(=O)NO)cc3)n2)cc1", "reported.value": 2.95}

* * *

assay: Selectivity index, ratio of CC50 for mouse TAMH cells to IC50 for human PC3 cells; type: toxicity; conditions: TAMH cells (CC50) and PC3 cells (IC50)
// reported selectivity ratio per item
reported.property: selectivity ratio

{"chemical.string": "Cc1cnc(Nc2ccc(N3CCN(C)CC3)cc2)nc1-c1ccc(NC(=O)CCCCCCC(=O)NO)cc1", "reported.property": "selectivity ratio", "reported.value": 7.19}
{"chemical.string": "O=C(CCCCCCC(=O)Nc1ccc(-c2ccnc(Nc3ccccc3)n2)cc1)NO", "reported.property": "selectivity ratio", "reported.value": 34.7}
{"chemical.string": "CC(=O)Nc1ccc(-c2ccnc(Nc3cccc(OCCCCCCCC(=O)NO)c3)n2)cc1", "reported.property": "selectivity ratio", "reported.value": 1.69}
{"chemical.string": "O=C(CCCCCCC(=O)Nc1ccc(-c2ccnc(Nc3cccc(N4CCCCC4)c3)n2)cc1)NO", "reported.property": "selectivity ratio", "reported.value": 6.25}
{"chemical.string": "CC(=O)Nc1ccc(-c2nc(Nc3cccc(OCCCCCCCC(=O)NO)c3)ncc2C)cc1", "reported.property": "selectivity ratio", "reported.value": 0.28}
{"chemical.string": "CC(=O)Nc1ccc(-c2nc(Nc3ccc(OCCCCCC(=O)NO)cc3)ncc2C)cc1", "reported.property": "selectivity ratio", "reported.value": 2.32}
{"chemical.string": "CC(=O)Nc1ccc(-c2ccnc(Nc3cccc(OCCCCCC(=O)NO)c3)n2)cc1", "reported.property": "selectivity ratio", "reported.value": 5.34}
{"chemical.string": "CC(=O)Nc1ccc(-c2ccnc(Nc3cccc(OCCCCCCC(=O)NO)c3)n2)cc1", "reported.property": "selectivity ratio", "reported.value": 3.71}
{"chemical.string": "CC(=O)Nc1ccc(-c2nc(Nc3cccc(OCCCCCCC(=O)NO)c3)ncc2C)cc1", "reported.property": "selectivity ratio", "reported.value": 1.43}
{"chemical.string": "CN1CCN(CC(=O)Nc2ccc(-c3ccnc(Nc4cccc(OCCCCCCC(=O)NO)c4)n3)cc2)CC1", "reported.property": "selectivity ratio", "reported.value": 4.44}
{"chemical.string": "CC(=O)Nc1ccc(-c2ccnc(Nc3ccc(OCCCCCCC(=O)NO)cc3)n2)cc1", "reported.property": "selectivity ratio", "reported.value": 2.49}
{"chemical.string": "O=C(CCCCCCC(=O)Nc1ccc(-c2ccnc(Nc3ccc(N4CCOCC4)cc3)n2)cc1)NO", "reported.property": "selectivity ratio", "reported.value": 9.98}
{"chemical.string": "CN1CCN(c2ccc(Nc3nccc(-c4ccc(NC(=O)CCCCCCC(=O)NO)cc4)n3)cc2)CC1", "reported.property": "selectivity ratio", "reported.value": 5.33}
{"chemical.string": "CN1CCN(CC(=O)Nc2ccc(-c3ccnc(Nc4ccc(OCCCCCCC(=O)NO)cc4)n3)cc2)CC1", "reported.property": "selectivity ratio", "reported.value": 1.97}

* * *

experiment: Selectivity index, ratio of CC50 for mouse TAMH cells to IC50 for human MCF7 cells; assay type: toxicity; details: TAMH cells (CC50) and MCF7 cells (IC50)

{"chemical.string": "CC(=O)Nc1ccc(-c2ccnc(Nc3cccc(OCCCCCCCC(=O)NO)c3)n2)cc1", "selectivity ratio": 2.27}
{"chemical.string": "CC(=O)Nc1ccc(-c2ccnc(Nc3cccc(OCCCCCC(=O)NO)c3)n2)cc1", "selectivity ratio": 3.47}
{"chemical.string": "CC(=O)Nc1ccc(-c2nc(Nc3cccc(OCCCCCCCC(=O)NO)c3)ncc2C)cc1", "selectivity ratio": 0.3}
{"chemical.string": "CC(=O)Nc1ccc(-c2ccnc(Nc3ccc(OCCCCCCC(=O)NO)cc3)n2)cc1", "selectivity ratio": 4.52}
{"chemical.string": "CC(=O)Nc1ccc(-c2nc(Nc3ccc(OCCCCCC(=O)NO)cc3)ncc2C)cc1", "selectivity ratio": 2.35}

* * *

test: Selectivity index, ratio of CC50 for human AC10 cells to IC50 for human PC3 cells; assay type: toxicity; conditions: AC10 cells (CC50) and PC3 cells (IC50)
reported.property: selectivity ratio

{"chemical.string": "CN1CCN(c2ccc(Nc3nccc(-c4ccc(NC(=O)CCCCCCC(=O)NO)cc4)n3)cc2)CC1", "relation.symbol": "=", "reported.value": 3.25}
{"chemical.string": "CN1CCN(CC(=O)Nc2ccc(-c3ccnc(Nc4cccc(OCCCCCCC(=O)NO)c4)n3)cc2)CC1", "relation.symbol": "=", "reported.value": 5.45}
{"chemical.string": "Cc1cnc(Nc2ccc(N3CCN(C)CC3)cc2)nc1-c1ccc(NC(=O)CCCCCCC(=O)NO)cc1", "relation.symbol": "=", "reported.value": 3.58}
{"chemical.string": "CC(=O)Nc1ccc(-c2ccnc(Nc3cccc(OCCCCCC(=O)NO)c3)n2)cc1", "relation.symbol": "=", "reported.value": 1.77}
{"chemical.string": "O=C(CCCCCCC(=O)Nc1ccc(-c2ccnc(Nc3cccc(N4CCCCC4)c3)n2)cc1)NO", "relation.symbol": "=", "reported.value": 7.12}
{"chemical.string": "CC(=O)Nc1ccc(-c2nc(Nc3cccc(OCCCCCCC(=O)NO)c3)ncc2C)cc1", "relation.symbol": "=", "reported.value": 1.75}
{"chemical.string": "CC(=O)Nc1ccc(-c2nc(Nc3cccc(OCCCCCCCC(=O)NO)c3)ncc2C)cc1", "relation.symbol": "=", "reported.value": 0.63}
{"chemical.string": "O=C(CCCCCCC(=O)Nc1ccc(-c2ccnc(Nc3ccccc3)n2)cc1)NO", "relation.symbol": "=", "reported.value": 14.3}
{"chemical.string": "CC(=O)Nc1ccc(-c2ccnc(Nc3cccc(OCCCCCCC(=O)NO)c3)n2)cc1", "relation.symbol": "=", "reported.value": 1.58}
{"chemical.string": "O=C(CCCCCCC(=O)Nc1ccc(-c2ccnc(Nc3ccc(N4CCOCC4)cc3)n2)cc1)NO", "relation.symbol": "=", "reported.value": 6.22}
{"chemical.string": "CC(=O)Nc1ccc(-c2nc(Nc3ccc(OCCCCCC(=O)NO)cc3)ncc2C)cc1", "relation.symbol": "=", "reported.value": 7.02}
{"chemical.string": "CN1CCN(CC(=O)Nc2ccc(-c3ccnc(Nc4ccc(OCCCCCCC(=O)NO)cc4)n3)cc2)CC1", "relation.symbol": "=", "reported.value": 1}
{"chemical.string": "CC(=O)Nc1ccc(-c2ccnc(Nc3ccc(OCCCCCCC(=O)NO)cc3)n2)cc1", "relation.symbol": "=", "reported.value": 1.63}
{"chemical.string": "CC(=O)Nc1ccc(-c2ccnc(Nc3cccc(OCCCCCCCC(=O)NO)c3)n2)cc1", "relation.symbol": ">", "reported.value": 61}
